This collection of values is drawn from ChEMBL document CHEMBL1147593.

Target chain: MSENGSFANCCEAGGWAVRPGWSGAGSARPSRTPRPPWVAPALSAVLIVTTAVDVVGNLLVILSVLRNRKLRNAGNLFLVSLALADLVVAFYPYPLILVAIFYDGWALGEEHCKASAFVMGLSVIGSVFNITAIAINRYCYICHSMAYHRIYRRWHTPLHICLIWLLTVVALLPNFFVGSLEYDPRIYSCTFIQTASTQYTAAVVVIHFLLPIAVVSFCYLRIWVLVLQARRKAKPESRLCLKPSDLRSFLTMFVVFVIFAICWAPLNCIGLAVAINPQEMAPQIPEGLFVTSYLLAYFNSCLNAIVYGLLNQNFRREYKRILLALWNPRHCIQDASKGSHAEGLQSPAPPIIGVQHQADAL
Could you please report measured log10 of Ki for the items listed next?
Log10 applied to Ki; unit prior to transform: nM.

Query (compound): CCC(=O)NC[C@@H]1C[C@H]1c1cccc2nc(CCCCc3ccccc3)oc12 ; field requested: log10 of Ki
-1.15

Query (compound): CCCC(=O)NC[C@@H]1C[C@H]1c1cccc2nc(CCCCc3ccccc3)oc12 ; field requested: log10 of Ki
-0.62

Query (compound): CCCc1nc2cccc([C@@H]3C[C@H]3CNC(=O)NCC)c2o1 ; field requested: log10 of Ki
0.00

Query (compound): CCCc1nc2cccc([C@@H]3C[C@H]3CNC(=O)C3CC3)c2o1 ; field requested: log10 of Ki
-0.85

Query (compound): CCc1nc2cccc([C@@H]3C[C@H]3CNC(C)=O)c2o1 ; field requested: log10 of Ki
-0.06

---

Parameter Ki, tested on Melatonin receptor type 1A (Homo sapiens), listed per item.
Sequence (P48039 whole entry): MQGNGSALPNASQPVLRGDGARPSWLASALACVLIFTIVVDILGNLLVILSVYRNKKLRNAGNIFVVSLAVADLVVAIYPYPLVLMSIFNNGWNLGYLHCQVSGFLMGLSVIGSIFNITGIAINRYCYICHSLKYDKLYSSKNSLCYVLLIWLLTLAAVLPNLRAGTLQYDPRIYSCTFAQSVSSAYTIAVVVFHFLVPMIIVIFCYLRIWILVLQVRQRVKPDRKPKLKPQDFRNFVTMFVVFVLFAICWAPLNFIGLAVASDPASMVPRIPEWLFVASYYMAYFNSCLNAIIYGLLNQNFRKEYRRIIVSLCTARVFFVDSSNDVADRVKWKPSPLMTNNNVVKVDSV
Expressed in nM, but write only the number.

Query (molecule): CCc1nc2cccc([C@@H]3C[C@H]3CNC(=O)C3CC3)c2o1 ; field requested: Ki
0.05

Query (molecule): CCC(=O)NC[C@@H]1C[C@H]1c1cccc2nc(CCCCc3ccccc3)oc12 ; field requested: Ki
0.05

Query (molecule): O=C(NC[C@@H]1C[C@H]1c1cccc2nc(CCCCc3ccccc3)oc12)C1CC1 ; field requested: Ki
0.05

Query (molecule): CCc1nc2cccc([C@@H]3C[C@H]3CNC(=O)C(C)C)c2o1 ; field requested: Ki
0.2

Query (molecule): CCCC(=O)NC[C@@H]1C[C@H]1c1cccc2nc(CCCCc3ccccc3)oc12 ; field requested: Ki
0.05

Query (molecule): CCC(=O)NC[C@@H]1C[C@H]1c1cccc2nc(CC)oc12 ; field requested: Ki
0.05

Query (molecule): CCCc1nc2cccc([C@@H]3C[C@H]3CNC(=O)C(C)C)c2o1 ; field requested: Ki
4.9

---

Target sequence: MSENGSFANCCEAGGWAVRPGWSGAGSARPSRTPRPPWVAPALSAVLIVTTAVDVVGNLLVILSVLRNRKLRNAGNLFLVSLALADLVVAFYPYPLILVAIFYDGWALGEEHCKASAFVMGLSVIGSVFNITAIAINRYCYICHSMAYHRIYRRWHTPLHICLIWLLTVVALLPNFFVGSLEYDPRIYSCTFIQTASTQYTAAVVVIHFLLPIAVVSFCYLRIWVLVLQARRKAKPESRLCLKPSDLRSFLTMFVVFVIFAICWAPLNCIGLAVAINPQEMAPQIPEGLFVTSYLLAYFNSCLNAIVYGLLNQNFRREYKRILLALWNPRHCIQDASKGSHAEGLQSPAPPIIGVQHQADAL
Measured quantity: Ki (nM)
Expressed in nM, but write only the number.

Query (molecule): CC(C)C(=O)NC[C@@H]1C[C@H]1c1cccc2nc(C(C)C)oc12 ; field requested: Ki
2.5

Query (molecule): CC(=O)NC[C@@H]1C[C@H]1c1cccc2nc(CCCCc3ccccc3)oc12 ; field requested: Ki
0.37

Query (molecule): O=C(NC[C@@H]1C[C@H]1c1cccc2nc(CCCCc3ccccc3)oc12)C1CC1 ; field requested: Ki
0.48

Query (molecule): CCCc1nc2cccc([C@@H]3C[C@H]3CNC(=O)C(C)C)c2o1 ; field requested: Ki
0.28
